Experiment: Thermo Scientific Acclaim RSLC 120 C18, 100 × 2.1 mm, 2.2 µm, 30 °C; A: 90% water + 10% methanol + 0.01% formic acid + 5 mM ammonium formate; B: methanol + 0.01% formic acid + 5 mM ammonium formate; gradient (min/%B) 0.1/1 3/39 14/99.9 16/99.9
Details: stereoisomer not certain
Could you please report measured LC retention time for the items listed next?
Give bare numbers, in min.

State the recorded LC retention time for every item in the following list.
1. CNc1nc(C)c(C)c(OC(=O)N(C)C)n1
2. COc1ccc2c3c1OC1C(=O)CCC4C(C2)N(C)CCC314 (centres undefined)
3. COC(=O)C1C(O)CC2CCC1N2C (centres undefined)
4. NC(N)=NCC1COc2ccccc2O1 (centres undefined)
5. CCCCCn1cc(C(=O)NC23CC4CC(CC(C4)C2)C3)c2ccccc21
6. CNC(C)Cc1ccccc1 (centres undefined)

1. 5.89
2. 3.69
3. 1.38
4. 4.57
5. 13.2
6. 4.21

----------
Experiment: Thermo Scientific Acclaim RSLC 120 C18, 100 × 2.1 mm, 2.2 µm, 30 °C; A: 90% water + 10% methanol + 0.01% formic acid + 5 mM ammonium formate; B: methanol + 0.01% formic acid + 5 mM ammonium formate; gradient (min/%B) 0.1/1 3/39 14/99.9 16/99.9
Conditions: stereoisomer not certain
Use rule met when the recorded LC retention time is no lower than 10 min; use rule not met when it is lower.

[[record]]
molecule = "CCCc1nc(C)c2c(=O)[nH]c(-c3cc(S(=O)(=O)N4CCCCC4)ccc3OCC)nn12"
class_name = "rule met"

[[record]]
molecule = "CC(C)(C)NCC(O)COc1cccc2c1CCC(=O)N2 (stereo not drawn)"
class_name = "rule not met"

[[record]]
molecule = "Cc1cc(C)n(-c2nc3ccccc3[nH]2)n1"
class_name = "rule not met"

[[record]]
molecule = "CC(C)(C)Nc1nc(N)[nH]c(=O)n1"
class_name = "rule not met"

[[record]]
molecule = "O=C(O)c1cc(N=Nc2ccc(O)c(C(=O)O)c2)ccc1O"
class_name = "rule not met"


Now look at this one.
Record COC1C(OC(N)=O)C(O)C(Oc2ccc3c(O)c(NC(=O)c4ccc(O)c(CC=C(C)C)c4)c(=O)oc3c2C)OC1(C)C (stereo not drawn) ; criterion: LC retention time no lower than 10 min. Met?
rule met

----------
Assay: Thermo Scientific Acclaim RSLC 120 C18, 100 × 2.1 mm, 2.2 µm, 30 °C; A: 90% water + 10% methanol + 0.01% formic acid + 5 mM ammonium formate; B: methanol + 0.01% formic acid + 5 mM ammonium formate; gradient (min/%B) 0.1/1 3/39 14/99.9 16/99.9
Details: stereoisomer not certain
Observed Property: LC retention time (min)
Answers are plain numbers, in min.

[[record]]
compound = "CCCCCn1cc(C(=O)c2ccc(OC)c3ccccc23)c2ccccc21"
observed_property = "LC retention time"
readout_value = 12.7

[[record]]
compound = "CCNC(C)C(O)c1ccc(O)c(O)c1 (stereo not drawn)"
observed_property = "LC retention time"
readout_value = 1.99


Now look at this one.
Look up and state reported LC retention time for Cc1ccccc1-n1c(C)nc2ccccc2c1=O
7.83

----------
Assay: Thermo Scientific Acclaim RSLC 120 C18, 100 × 2.1 mm, 2.2 µm, 30 °C; A: 90% water + 10% methanol + 0.01% formic acid + 5 mM ammonium formate; B: methanol + 0.01% formic acid + 5 mM ammonium formate; gradient (min/%B) 0.1/1 3/39 14/99.9 16/99.9
Conditions: stereoisomer not certain
Could you please report measured LC retention time for the items listed next?
Put your answer as a value accompanied by its unit after it.

[[record]]
compound = "Cc1cc(O)ccc1CC(C)N (configuration not stated)"
readout_value = "2.98 min"


State the recorded LC retention time for every item in the following list.
1. CCC(=C(c1ccccc1)c1ccc(OCCN(C)C)cc1)c1ccccc1
2. Cc1ccc(C(=CCN2CCCC2)c2cccc(C=CC(=O)O)n2)cc1
3. COP(=O)(OC)OC(C)=CC(=O)OC(C)c1ccccc1 (configuration not stated)
4. Cc1ccnc(NS(=O)(=O)c2ccc(N)cc2)n1

1. 11 min
2. 6.66 min
3. 9.39 min
4. 3.95 min

State the recorded LC retention time for every item in the following list.
1. CN(C)c1nc(=O)n(C2CCCCC2)c(=O)n1C
2. C=CCN1CCC23c4c5ccc(O)c4OC2C(=O)CCC3(O)C1C5 (configuration not stated)

7.09 min
3.44 min
